These measurements were taken from the METLIN SMRT retention time set (Domingo-Almenara et al. 2019).

Listed here: items and their measured RP-LC retention time.
# Test protocol: gradient 5% acetonitrile 3 min, to 50% in 2 min, to 85% in 15 min, held 3 min, 100 µL/min
# Assay setup: column: Zorbax Extend-C18 2.1 x 50 mm; eluents: water / acetonitrile, 0.1% formic acid
Give the value in s but do not write s after it.

# Compound, Recorded number
data = [
    ("CCc1ccc(NC(=O)CCS(=O)(=O)c2ccc3c(c2)CCCN3C(C)=O)cc1", 808),
    ("O=C(CC1c2ncccc2C(=O)N1c1ccccc1)N1CCN(c2ccccn2)CC1 (stereo not drawn)", 683),
    ("CC(=O)Nc1ccc(C(=O)NC2CCN(c3cc(-c4ccc(F)cc4)[nH]n3)C2)cc1 (stereo not drawn)", 641),
    ("Cc1cc(NC(=O)Cn2cc3c(n2)CCCCC3)ccc1Br", 1030),
    ("CCCn1c(CCNC(=O)c2ccc(C)c(F)c2)nc2cccnc21", 695),
    ("CCOc1ccccc1C(=O)N1CCC(C(=O)NCC(F)(F)F)CC1", 665),
    ("CCn1cc(-c2nc(C(=O)Nc3cccc(C#N)c3)cs2)c2cccnc21", 1030),
    ("CSc1ccc(CNC(=O)c2cccc(-c3nc4cccnc4n3C)c2)cc1", 759),
    ("CCOc1ccc(NC(=O)N2CCC(n3c(-c4ccoc4)nc4cccnc43)C2)cc1 (stereo not drawn)", 735),
    ("Cc1cc(N2CCOCC2)nc(N2CCOCC2)n1", 624),
]

Complete the entry with RP-LC retention time for O=C(Cc1nnc(-c2ccc3ncccc3c2)o1)Nc1ccc(F)c(F)c1
741

Give a short answer stating reported RP-LC retention time for Cc1cc(C)cc(NC(=O)Cn2cccc(-c3nc(-c4ccc(Br)cc4)no3)c2=O)c1 .
1060

Assign RP-LC retention time to the following record: O=C(Nc1ccc(F)cc1)N1CCC(n2cnc3ccc(Cl)cc3c2=O)CC1
828

----------
# Test protocol: gradient 5% acetonitrile 3 min, to 50% in 2 min, to 85% in 15 min, held 3 min, 100 µL/min
# Assay setup: column: Zorbax Extend-C18 2.1 x 50 mm; eluents: water / acetonitrile, 0.1% formic acid
Recorded RP-LC retention time for the following molecules
The response must be a number in s with no trailing unit.

Answered examples (2):
# Molecule, Property label, Endpoint unit, Recorded number
measured = [
    ("CCC(=O)N1CCc2c(C(=O)NC3CC3)cccc21", "RP-LC retention time", "s", 653),
    ("CC1(C)C(=O)N(CC(=O)Nc2cccc(F)c2)c2ccccc21", "RP-LC retention time", "s", 886),
]

Input Cn1nc(-c2nnc(-c3ccc(F)cc3)o2)c2c1CCN(S(=O)(=O)c1ccccc1Cl)C2 , output reported RP-LC retention time.
990

Determine its reported RP-LC retention time: O=C(c1ccc(-n2c(-c3ccccc3)nc3cccnc32)cc1)N1CCN(c2ccccn2)CC1
613

Provide only the value of recorded RP-LC retention time for CCOCc1nc(C2CCCN2S(=O)(=O)c2c(C)nn(C)c2C)no1 (stereo unspecified)
691

----------
# Test protocol: gradient 5% acetonitrile 3 min, to 50% in 2 min, to 85% in 15 min, held 3 min, 100 µL/min
# Assay setup: column: Zorbax Extend-C18 2.1 x 50 mm; eluents: water / acetonitrile, 0.1% formic acid
Property label: RP-LC retention time (s)
Report only the number, with the unit s understood.

# Compound, RP-LC retention time, s
records = [
    ("COc1ccc(NC(=O)N2CCC(n3cnc4ccc(Cl)cc4c3=O)CC2)cc1", 802),
    ("CC1CCCCN1c1ccn2c(=O)n(CC(=O)Nc3cc(F)cc(F)c3)nc2n1 (stereo not drawn)", 810),
    ("Cc1c(Cl)cccc1NC(=O)C1CCCN(c2ccc(-n3cccn3)nn2)C1 (stereo not drawn)", 784),
    ("O=C(NC1CCN(c2cc(-c3cccs3)[nH]n2)C1)c1cc(Cl)ccc1F (stereo not drawn)", 800),
    ("CCOC(=O)c1c(-c2cccs2)csc1NC(=O)CSc1ncn[nH]1", 815),
]

Please report the measured RP-LC retention time for Cc1ccc(NS(=O)(=O)c2cc(-c3[nH]ncc3C(=O)N3CCCCC3)oc2C)c(C)c1
791

Return the recorded RP-LC retention time value; entry: CCc1ccc(NC(=O)Cn2c(=O)c3cc(C)nn3c3ncccc32)cc1
786

Find the measured RP-LC retention time of O=C(Nc1ccccc1Cl)N(Cc1ccsc1)Cc1ccccn1 and report it.
806
